Target: Mushroom tyrosinase (Agaricus bisporus, UniProt O42713+Q00024+C7FF04+C7FF05)
Test: Inhibition of monophenolase activity of mushroom tyrosinase using L-Tyrosine substrate incubated for 5 mins followed by substrate addition and measured for 30 mins by colorimetry

>  <compound>
O=C(CCc1ccccc1)c1c(O)cc(O)cc1O

>  <comparison sign>
=

>  <IC50 [µM]>
68.48

$$$$
>  <compound>
O=c1c(-c2ccc(O)cc2)coc2cc(O)cc(O)c12 [GENISTEIN]

>  <comparison sign>
>

>  <IC50 [µM]>
200

$$$$
>  <compound>
O=c1c(O)c(-c2ccccc2)oc2cc(O)cc(O)c12 [GALANGIN]

>  <comparison sign>
=

>  <IC50 [µM]>
420.37

$$$$
>  <compound>
COc1cc(O)c(C(=O)CCc2ccccc2)c(O)c1

>  <comparison sign>
>

>  <IC50 [µM]>
200

$$$$
>  <compound>
O=C1C[C@@H](c2ccccc2)Oc2cc(O)cc(O)c21 [PINOCEMBRIN]

>  <comparison sign>
>

>  <IC50 [µM]>
200

$$$$
